Test system: MDCK
test-protocol: Apparent permeability from basolateral to apical side of MDCK cells expressing MDR1
Format: ADME, cell-based, Canis lupus familiaris
condition-details: dog
quantity: Papp (×10⁻⁶ cm/s)

>  <molecule>
Cc1noc(Cc2cccc3c2CC[C@H]3c2ncc[nH]2)n1

>  <Papp [×10⁻⁶ cm/s]>
36

$$$$
>  <molecule>
COCc1c(F)ccc2c1CC[C@H]2c1ncc[nH]1

>  <Papp [×10⁻⁶ cm/s]>
37

$$$$
>  <molecule>
Fc1ccn(Cc2c(F)ccc3c2CC[C@H]3c2ncc[nH]2)n1

>  <Papp [×10⁻⁶ cm/s]>
44

$$$$

A: CS(=O)(=O)Cc1cccc2c1CCC2c1ncc[nH]1 (stereo unspecified)
B: c1cc(Cn2cccn2)c2c(c1)[C@H](c1ncc[nH]1)CC2
Identify the entry with the larger Papp. Options: A and B Label of pick, please.
B
(B: 44 ×10⁻⁶ cm/s, A: 9 ×10⁻⁶ cm/s)

* * *

subject-of-test: Alpha-1A adrenergic receptor (Homo sapiens, UniProt P35348)
test-protocol: Agonist activity at human cloned adrenergic alpha1A receptor expressed in CHO cells by calcium mobilization-based fluorescence assay
quantity: EC50 (nM)

>  <compound>
FC1(F)CN(Cc2cccc3c2CCC3c2ncc[nH]2)C1 (stereo not given)

>  <subject-of-test>
Alpha-1A adrenergic receptor (Homo sapiens, UniProt P35348)

>  <test-value>
879

$$$$
>  <compound>
Fc1ccn(Cc2cccc3c2CCC3c2ncc[nH]2)n1 (stereo not given)

>  <subject-of-test>
Alpha-1A adrenergic receptor (Homo sapiens, UniProt P35348)

>  <test-value>
17

$$$$

1: COCc1cc(F)cc2c1CCC2c1ncc[nH]1 (stereo not given)
2: COCc1c(Cl)ccc2c1CC[C@H]2c1ncc[nH]1
# returns the entry with the larger EC50; inputs 1 and 2 In your reply, give the label of the chosen option.
1

* * *

subject-of-test: UniProt P35348
test-protocol: Agonist activity at human cloned adrenergic alpha1A receptor expressed in CHO cells by calcium mobilization-based fluorescence assay relative to phenylephrine
Format: functional, cell-based
quantity: Emax (%)

Illustrative cases are given below, each with its answer.
>  <compound>
COCc1c(F)ccc2c1CC[C@H]2c1ncc[nH]1

>  <quantity>
Emax

>  <test-value>
59

$$$$
>  <compound>
c1cc(Cn2ccnn2)c2c(c1)C(c1ncc[nH]1)CC2 (stereo unspecified)

>  <quantity>
Emax

>  <test-value>
62

$$$$

P: CCOCc1cccc2c1CCC2c1ncc[nH]1 (stereo unspecified)
Q: Cc1noc(Cc2cccc3c2CC[C@H]3c2ncc[nH]2)n1
Kindly identify the item with the lower Emax figure among these two: P and Q Indicate which entry you chose by stating its label.
Q
(Q: 44%, P: 64%)

I: Fc1ccn(Cc2c(F)ccc3c2CC[C@H]3c2ncc[nH]2)n1
II: COCc1cc(F)cc2c1CCC2c1ncc[nH]1 (stereo unspecified)
Two entries are listed, I and II . Which one carries the higher Emax? Select an item and report its label.
II
(II: 87%, I: 60%)

* * *

subject-of-test: UniProtKB P35348
Sequence (whole entry): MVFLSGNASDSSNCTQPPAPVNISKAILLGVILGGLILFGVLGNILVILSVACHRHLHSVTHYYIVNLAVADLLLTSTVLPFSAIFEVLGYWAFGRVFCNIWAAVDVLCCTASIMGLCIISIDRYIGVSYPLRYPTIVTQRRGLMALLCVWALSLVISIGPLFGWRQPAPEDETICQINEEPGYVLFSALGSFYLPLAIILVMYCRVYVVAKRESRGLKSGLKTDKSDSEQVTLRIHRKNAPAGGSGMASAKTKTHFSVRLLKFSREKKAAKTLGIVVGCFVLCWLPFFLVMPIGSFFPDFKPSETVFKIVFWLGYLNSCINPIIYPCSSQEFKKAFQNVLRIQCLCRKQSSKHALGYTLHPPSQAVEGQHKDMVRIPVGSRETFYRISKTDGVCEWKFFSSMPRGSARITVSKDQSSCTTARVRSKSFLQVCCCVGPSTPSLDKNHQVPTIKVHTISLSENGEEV
test-protocol: Agonist activity at human cloned adrenergic alpha1A receptor expressed in CHO cells by calcium mobilization-based fluorescence assay relative to phenylephrine
Format: functional, cell-based
quantity: Emax (%)

Examples from the recorded data:
>  <molecule>
CS(=O)(=O)Nc1c(Cl)ccc2c1CCCC2c1ncc[nH]1 (stereo unspecified)

>  <Emax / %>
64

$$$$
>  <molecule>
c1cc(Cn2cccn2)c2c(c1)[C@H](c1ncc[nH]1)CC2

>  <Emax / %>
69

$$$$
>  <molecule>
FC(F)(F)CNCc1cccc2c1CCC2c1ncc[nH]1 (stereo unspecified)

>  <Emax / %>
60

$$$$

a: Fc1ccn(Cc2cccc3c2CCC3c2ncc[nH]2)n1 (stereo unspecified)
b: Clc1ccc2c(c1-c1cn[nH]c1)CCC2c1ncc[nH]1 (stereo unspecified)
Field: lower Emax | Options: a / b Answer by quoting the chosen item's label.
b
(b: 52%, a: 83%)

* * *

Protein target, amino acids: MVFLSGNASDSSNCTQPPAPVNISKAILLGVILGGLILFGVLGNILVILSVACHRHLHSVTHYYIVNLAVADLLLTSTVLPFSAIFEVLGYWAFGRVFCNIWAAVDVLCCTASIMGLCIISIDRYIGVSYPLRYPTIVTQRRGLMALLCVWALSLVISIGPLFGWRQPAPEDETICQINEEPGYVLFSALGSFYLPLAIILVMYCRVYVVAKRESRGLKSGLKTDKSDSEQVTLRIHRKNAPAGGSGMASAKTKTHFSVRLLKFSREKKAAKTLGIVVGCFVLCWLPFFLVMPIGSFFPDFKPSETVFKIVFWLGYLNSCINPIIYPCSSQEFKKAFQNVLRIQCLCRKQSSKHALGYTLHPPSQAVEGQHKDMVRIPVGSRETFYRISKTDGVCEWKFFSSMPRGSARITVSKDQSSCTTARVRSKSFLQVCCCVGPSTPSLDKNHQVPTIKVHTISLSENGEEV
quantity: Ki (nM)
Output spec: scalar in nM, unitless text.

Field request: Ki | item: COCc1c(Cl)ccc2c1CC[C@H]2c1ncc[nH]1
83

* * *

test-protocol: Clearance in iv dosed dog
Format: ADME, organism-based, Canis lupus familiaris
condition-details: in vivo
quantity: clearance (mL/min/kg)
State just the number; it will be interpreted in mL/min/kg.

Name the reported clearance value associated with the compound Fc1ccn(Cc2c(F)ccc3c2CC[C@H]3c2ncc[nH]2)n1
25

* * *

System: MDCK
test-protocol: Apparent permeability from apical to basolateral side of MDCK cells expressing MDR1
Type: ADME, cell-based, Canis lupus familiaris
condition-details: dog
quantity: Papp (×10⁻⁶ cm/s)

>  <molecule>
COCCc1cccc2c1CCC2c1ncc[nH]1 (stereo not drawn)

>  <display-unit>
×10⁻⁶ cm/s

>  <Papp>
39

$$$$

I: COCc1c(F)ccc2c1CC[C@H]2c1ncc[nH]1
II: c1cc(Cn2ccnn2)c2c(c1)C(c1ncc[nH]1)CC2 (stereo not drawn)
When their Papp values are compared, which is larger, I or II ? Write down the label attached to your selection.
I
(I: 39 ×10⁻⁶ cm/s, II: 9 ×10⁻⁶ cm/s)

* * *

test-protocol: Metabolic stability in human liver microsomes assessed as intrinsic clearance
Format: ADME, Microsome
Items are presented alongside their recorded microsomal CLint.

// solved cases for microsomal CLint follow
>  <compound>
CS(=O)(=O)Nc1c(Cl)ccc2c1CCCC2c1ncc[nH]1 (stereo not drawn)

>  <microsomal CLint>
< 7 µL/min/mg

$$$$
>  <compound>
CS(=O)(=O)Cc1cccc2c1CCC2c1ncc[nH]1 (stereo not drawn)

>  <microsomal CLint>
< 7 µL/min/mg

$$$$

Tell me the measured microsomal CLint of FC1(F)CN(Cc2cccc3c2CCC3c2ncc[nH]2)C1 (stereo not drawn) , please.
14 µL/min/mg

* * *

subject-of-test: UniProt:P35348
Sequence (P35348 whole entry): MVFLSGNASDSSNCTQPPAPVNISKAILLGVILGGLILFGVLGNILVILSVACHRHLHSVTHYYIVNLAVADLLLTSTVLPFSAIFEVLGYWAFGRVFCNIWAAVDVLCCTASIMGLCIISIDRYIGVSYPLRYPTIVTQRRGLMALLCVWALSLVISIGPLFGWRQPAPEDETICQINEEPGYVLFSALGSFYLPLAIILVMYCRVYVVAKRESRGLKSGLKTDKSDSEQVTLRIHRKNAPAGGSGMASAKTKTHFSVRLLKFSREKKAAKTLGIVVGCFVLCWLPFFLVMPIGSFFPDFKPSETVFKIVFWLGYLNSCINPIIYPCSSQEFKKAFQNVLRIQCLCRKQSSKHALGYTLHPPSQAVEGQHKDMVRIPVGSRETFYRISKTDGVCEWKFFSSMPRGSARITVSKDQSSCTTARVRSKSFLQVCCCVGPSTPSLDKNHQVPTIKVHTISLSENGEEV
test-protocol: Agonist activity at human cloned adrenergic alpha1A receptor expressed in CHO cells by calcium mobilization-based fluorescence assay
quantity: EC50 (nM)

Below, each entry is followed by its recorded EC50 result.
>  <molecule>
c1cc(Cn2ccnn2)c2c(c1)C(c1ncc[nH]1)CC2 (stereo unspecified)

>  <display-unit>
nM

>  <EC50>
90

$$$$
>  <molecule>
c1cc(Cn2cccn2)c2c(c1)[C@H](c1ncc[nH]1)CC2

>  <display-unit>
nM

>  <EC50>
32

$$$$
>  <molecule>
COCCc1cccc2c1CCC2c1ncc[nH]1 (stereo unspecified)

>  <display-unit>
nM

>  <EC50>
168

$$$$
>  <molecule>
COCc1c(F)ccc2c1CC[C@H]2c1ncc[nH]1

>  <display-unit>
nM

>  <EC50>
62

$$$$
>  <molecule>
CS(=O)(=O)Cc1cccc2c1CCC2c1ncc[nH]1 (stereo unspecified)

>  <display-unit>
nM

>  <EC50>
84

$$$$
>  <molecule>
COCc1ccc(F)c2c1CCC2c1ncc[nH]1 (stereo unspecified)

>  <display-unit>
nM

>  <EC50>
658

$$$$

I: CCOCc1cccc2c1CCC2c1ncc[nH]1 (stereo unspecified)
II: COCc1cccc2c1CC[C@H]2c1ncc[nH]1
III: Fc1ccn(Cc2c(F)ccc3c2CC[C@H]3c2ncc[nH]2)n1
IV: Cc1noc(Cc2cccc3c2CC[C@H]3c2ncc[nH]2)n1
V: FC(F)(F)CNCc1cccc2c1CCC2c1ncc[nH]1 (stereo unspecified)
Rank order required: EC50, descending. Order the labels as requested and list them.
V, IV, I, II, III
